# assay.overview: NCI Yeast Anticancer Drug Screen. Data for the rad50 strain (AID 155);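 also: 0% = growth of vehicle-only cultures of the same strain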
# test.context: S. cerevisiae rad50 strain growth inhibition; at 50.0 µM
The panel holds about 79,000 compounds, 15% with a hit somewhere; the sample as a whole holds those more often. Activity calls are given as the source filed them. Rule as the data show it: active = growth inhibition above about 70%; inactive = the rest.
Parameter call: string, one of active, inactive

COc1cc(C(c2cc3c(cc2OC(C)=O)OCO3)C(C)C(C)=O)cc(OC)c1OC (centres undefined)	inactive
CSc1ncnc2nn(C3OC(COC(=O)c4ccccc4)C(OC(=O)c4ccccc4)C3OC(=O)c3ccccc3)nc12 (centres undefined)	inactive
CC1CCC2(CC1)NC1=C(CC(C)CC1)C1=C2CC(C)CC1 (centres undefined)	inactive

Okay, next one:
// param item: BrC1(c2ccccc2)C[n+]2c(-c3ccccc3)cc(-c3ccccc3)cc2-c2ccccc21 (centres undefined) ; yields the recorded call
active

----------
# assay.overview: NCI Yeast Anticancer Drug Screen. Data for the sgs1 mgt1 strain (AID 161);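 also: 0% = growth of cultures given vehicle only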
# test.context: S. cerevisiae sgs1 mgt1 strain, at 50.0 µM (retest, dose inferred, filed as 5.0), stronger effect = higher value
The panel holds about 79,000 compounds, 15% with a hit somewhere; the sample as a whole holds those more often.
YES means recorded growth inhibition is 80% or above; NO means it is below 80%.

Check out these entries, answers already filled in.
O=[N+]([O-])c1ccccc1SCc1ccccc1	NO
CCSc1nc2ccc(N3C(=O)C=CC3=O)cc2s1	YES
O=C(O)c1ccc(N=CC2CO2)cc1 (configuration not stated)	NO
COc1ccc(C(=O)c2cc(Cl)ccc2N)cc1	YES
O=C1C(C=NC(=S)c2ccccc2)=C(O)c2ccccc21	NO

Okay, next one:
Hi team, for c1cc[c]([Sn]([O]c2cccc3cccnc23)([c]2ccccc2)[c]2ccccc2)cc1 , is the recorded growth inhibition at or above 80%?
NO

----------
growth inhibition values for the molecules below.
# assay.overview: NCI Yeast Anticancer Drug Screen. Data for the mlh1 rad18 strain (AID 175)
# test.context: S. cerevisiae mlh1 rad18 strain growth inhibition; at 50.0 µM (retest, dose inferred, filed as 5.0); stronger effect = higher value
About 79,000 compounds went through this panel and 15% of them were active in at least one assay; those are over-represented in the sample as a whole.
Write the number in % without appending the unit.

Would you please look over these solved cases?
COC(=O)c1nc(Cl)nc(Cl)c1N	96
O=C1C2=C(C(=O)c3cnccc31)C1C=CC2CC1 (centres undefined)	94
CCCCc1ccc2c(c1)Nc1cc3ccccc3cc1N2	59
c1ccc([B-](c2ccccc2)(c2ccccc2)c2ccccc2)cc1	-2
O=C(CCn1[nH]c(=O)c(Cl)c(Cl)c1=O)NNc1ccc([N+](=O)[O-])cc1[N+](=O)[O-]	17
O=S(=O)(Nc1ccc2ccc3cccc4ccc1c2c34)c1ccccc1	55
C(=C1/CNC/C(=C/c2ccccc2)C1)/c1ccccc1	97
COC(=O)NC1CCCCCCCCCCC1I (centres undefined)	98
COC(=O)C(=O)C(C(=O)Nc1cccc(C)c1C)C1Sc2ccccc2NC1=O (centres undefined)	92
CN(C)c1cc2c(cc1[N+](=O)[O-])-c1ccccc1C2O (centres undefined)	74

Could you tell me which growth inhibition is on file for COc1ccc(NNC(=O)c2ccccc2)cc1 ?
98

----------
# assay.overview: NCI Yeast Anticancer Drug Screen. Data for the rad50 strain (AID 155);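 also: 0% = growth of vehicle-only cultures of the same strain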
# test.context: S. cerevisiae rad50 strain growth inhibition; at 50.0 µM (retest, dose inferred, filed as 5.0); stronger effect = higher value
About 79,000 compounds went through this panel and 15% of them were active in at least one assay; those are over-represented in the sample as a whole.
assay.readout: growth inhibition (%)
Write the number in % without appending the unit.

NCCCNCc1c2ccccc2c(CNCCCN)c2ccccc12	6
O=S(=O)(Nc1ccc(Cl)cc1)c1ccccc1	50
Oc1c(Cl)cc(Cl)cc1Br	83
Nc1nc(-c2ccc(Cl)cc2)c(N=Nc2ccc(Br)cc2)s1	93
C=CCNC(=S)N/N=C(/c1ccccn1)C(C)C	40

Could you tell me which growth inhibition is on file for Cc1ccc(Cl)cc1NC(=O)N(C)CCOC(=O)Nc1cccc(Cl)c1 ?
95

And then CC(=O)C1(C(C)=O)C2=C(C(=O)C(Cl)=C(Cl)C2=O)N2C=CC=CC21 (stereo not drawn) , what is it?
95

And then CSc1nc(=Nc2ccccc2)sn1-c1ccccc1 , what is it?
98

----------
# assay.overview: NCI Yeast Anticancer Drug Screen. Data for the cln2 rad14 strain (AID 165);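 also: 0% = growth equal to vehicle treated cultures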
# test.context: S. cerevisiae cln2 rad14 strain, at 5.0 µM (retest, dose inferred, filed as 0.5), stronger effect = higher value
Compounds without any hit were thinned out: in the full panel of roughly 79,000, 15% have a hit.
growth inhibition values for the compounds below.
Write the number in % without appending the unit.

COC1(OC)C(C#N)(C#N)C2(C(=O)Nc3ccccc32)C1(OC)OC (stereo not drawn)	-4
Clc1ccc(-c2nnn3ccccc23)cc1	4
[O-]c1c(-c2cccc3ccccc23)sc(-c2cccc3ccccc23)[n+]1-c1ccccc1	-2
O=[N+]([O-])c1ccc(-c2nc(/C=N/N3CCCCC3)cs2)o1	-7
Cc1cc(N(CCOS(C)(=O)=O)CCOS(C)(=O)=O)ccc1C=Nc1ccc(-c2csc(-c3ccc(Br)cc3)n2)cc1	37
NC(=O)c1ccccc1OC(=O)NCCO	-1

Could you tell me which growth inhibition is on file for Oc1cc(-[n+]2ccccc2)c(O)c2ccccc12 ?
9

And then O=S(=O)(Nc1ccccn1)c1ccc(N=Cc2c3ccccc3nc3cc(Cl)ccc23)cc1 , what is it?
4

And then CCCCc1[nH]ccc2c(C)c3nc4ccccc4c3cc12 , what is it?
2

And then CC(C(O)Cc1ccccc1)N(C)N=Nc1ccc([N+](=O)[O-])cc1 (stereo not drawn) , what is it?
21

----------
# assay.overview: NCI Yeast Anticancer Drug Screen. Data for the rad50 strain (AID 155);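 also: 0% = growth of vehicle-only cultures of the same strain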
# test.context: S. cerevisiae rad50 strain growth inhibition; at 50.0 µM
About 79,000 compounds went through this panel and 15% of them were active in at least one assay; those are over-represented in the sample as a whole. Active and inactive are the calls of the source. Rule as the data show it: active = growth inhibition above about 70%; inactive = the rest.
Parameter call: string, one of yes (1) = active, no (0) = inactive

Check out these entries, answers already filled in.
O=C1OC(=O)C2C1C1(c3ccccc3)OC2(c2ccccc2)c2c(Br)c(Br)c(Br)c(Br)c21 (centres undefined)	yes (1)
C1=CC2C(c3cccc4ccccc34)O[C@H]2O1 (some centres undefined)	yes (1)
C/C=C/C(=O)N1c2ccccc2CC1c1c(C)[nH]c2ccccc12 (centres undefined)	yes (1)
CCN(C(C)=O)c1cnc(/C=N/NC(N)=S)c2ccccc12	no (0)
COc1ccc(CSC(=S)Nc2ccc(Cl)cc2Cl)cc1	yes (1)
CC1=C(\C=C/C(C)=N/N=C(C)\C=C\C2=C(C)CCCC2(C)C)C(C)(C)CCC1	yes (1)
CC(CN1CCOCC1)(CN1CCOCC1)[N+](=O)[O-]	yes (1)
CCOCCNc1ncnc2c1cnn2C	no (0)

Okay, next one:
// param item: CS(=O)(=O)c1cc(=O)c2ccccc2s1 ; yields the recorded call
yes (1)

----------
# assay.overview: NCI Yeast Anticancer Drug Screen. Data for the sgs1 mgt1 strain (AID 161);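 also: 0% = growth of cultures given vehicle only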
# test.context: S. cerevisiae sgs1 mgt1 strain, at 5.0 µM (retest, dose inferred, filed as 0.5), stronger effect = higher value
Compounds without any hit were thinned out: in the full panel of roughly 79,000, 15% have a hit.
growth inhibition values for the compounds below.
Write the number in % without appending the unit.

Would you please look over these solved cases?
N#CC1CCCC(Cc2ccccc2)(c2ccccc2)C1=O (configuration not stated)	-2
CCCCN1C(=O)C(=O)N(c2ccccc2)C1=O	-14
Nc1c(-c2ccc(Cl)cc2)[n+]([O-])c2ccccc2[n+]1[O-]	1
CC1(c2ccccc2)OC(=O)C=CC1=O (configuration not stated)	21
ON=C(CC(O)(C(F)(F)Cl)C(F)(F)Cl)CC(O)(C(F)(F)Cl)C(F)(F)Cl	37

Could you tell me which growth inhibition is on file for COC(=O)C(=[N+]=[N-])C(=O)c1ccc(Cl)cc1 ?
2

And then O=C(O)c1ccc(NC(c2ccccc2)c2ccc3cccnc3c2O)cc1 (configuration not stated) , what is it?
-8

And then Cc1cc(C)nc(NS(=O)(=O)c2ccc(Nc3nc(-c4cccc([N+](=O)[O-])c4)cs3)cc2)n1 , what is it?
7

And then O=C1OCCCN1/N=C/c1ccc([N+](=O)[O-])o1 , what is it?
10

----------
growth inhibition values for the compounds below.
# assay.overview: NCI Yeast Anticancer Drug Screen. Data for the bub3 strain (AID 167)
# test.context: S. cerevisiae bub3 mutant strain, at 50.0 µM (retest, dose inferred, filed as 5.0), stronger effect = higher value
The panel holds about 79,000 compounds, 15% with a hit somewhere; the sample as a whole holds those more often. Activity calls are given as the source filed them. Rule as the data show it: active = growth inhibition above about 70%; inactive = the rest.

Would you please look over these solved cases?
Cc1ccc(O)cc1CCCCO	0% (inactive)
CC(C)N1C(=O)c2ccccc2S1(Cl)c1ccccc1 (centres undefined)	-6% (inactive)
CCc1cccc(CC)c1NC(=S)N/C=C(\C#N)C(=O)c1ccc2ccccc2c1	7% (inactive)

Moving on to the next compound.
Could you tell me which growth inhibition is on file for CN(C)c1ccc(/C=C(\C#N)c2cccc(Cl)c2)cc1 ?
14% (inactive)
